We begin with a simple list: items and their reported log10 of EC50.
Molecular target: ΔF508-CFTR (Homo sapiens, UniProt P13569, DEL508-508)
Construct: host or cells: CFBE41o-, doxycycline-inducible
Sequence (P13569 with tags, fused parts or gaps DEL508-508): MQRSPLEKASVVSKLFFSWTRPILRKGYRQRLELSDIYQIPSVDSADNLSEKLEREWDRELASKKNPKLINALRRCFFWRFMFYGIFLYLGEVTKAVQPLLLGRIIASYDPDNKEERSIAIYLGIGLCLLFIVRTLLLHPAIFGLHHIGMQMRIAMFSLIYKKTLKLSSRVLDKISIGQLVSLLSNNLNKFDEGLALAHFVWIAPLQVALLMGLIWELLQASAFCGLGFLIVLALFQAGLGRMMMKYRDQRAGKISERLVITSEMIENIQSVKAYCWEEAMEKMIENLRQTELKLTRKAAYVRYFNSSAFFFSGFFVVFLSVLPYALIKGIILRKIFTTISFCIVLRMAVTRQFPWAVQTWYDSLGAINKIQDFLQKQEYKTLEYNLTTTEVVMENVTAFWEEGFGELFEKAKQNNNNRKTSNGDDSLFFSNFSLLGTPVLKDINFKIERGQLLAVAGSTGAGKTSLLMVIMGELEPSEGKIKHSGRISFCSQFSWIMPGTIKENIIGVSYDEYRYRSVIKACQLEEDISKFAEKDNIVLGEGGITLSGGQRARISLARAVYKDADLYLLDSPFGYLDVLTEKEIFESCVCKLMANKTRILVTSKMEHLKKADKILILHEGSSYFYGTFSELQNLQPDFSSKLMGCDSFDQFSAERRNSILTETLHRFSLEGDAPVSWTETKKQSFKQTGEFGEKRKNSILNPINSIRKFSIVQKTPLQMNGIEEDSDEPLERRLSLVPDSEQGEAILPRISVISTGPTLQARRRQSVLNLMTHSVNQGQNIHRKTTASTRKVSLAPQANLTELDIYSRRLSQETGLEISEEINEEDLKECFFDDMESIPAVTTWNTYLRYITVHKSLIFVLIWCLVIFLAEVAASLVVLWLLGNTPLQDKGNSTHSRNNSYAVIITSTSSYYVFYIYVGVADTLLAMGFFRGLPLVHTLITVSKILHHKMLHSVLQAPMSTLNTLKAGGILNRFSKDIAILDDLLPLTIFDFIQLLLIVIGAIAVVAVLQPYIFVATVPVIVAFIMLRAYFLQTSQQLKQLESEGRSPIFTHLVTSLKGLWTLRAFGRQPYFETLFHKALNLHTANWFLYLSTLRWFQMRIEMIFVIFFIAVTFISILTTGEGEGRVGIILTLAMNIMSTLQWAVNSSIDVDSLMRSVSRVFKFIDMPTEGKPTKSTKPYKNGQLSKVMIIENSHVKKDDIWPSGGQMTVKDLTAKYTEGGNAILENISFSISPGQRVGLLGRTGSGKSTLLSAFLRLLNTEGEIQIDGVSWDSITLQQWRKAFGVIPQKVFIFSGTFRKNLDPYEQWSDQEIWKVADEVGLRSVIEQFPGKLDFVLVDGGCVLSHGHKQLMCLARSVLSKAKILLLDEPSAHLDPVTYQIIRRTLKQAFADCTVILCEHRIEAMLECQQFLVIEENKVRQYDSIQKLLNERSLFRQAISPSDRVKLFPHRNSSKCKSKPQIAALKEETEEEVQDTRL
Experiment: CFTR cell surface levels using HRP-tagged ΔF508-CFTR expressing CFBE cells, intrinsic corrector capacity
Format: cell-based
Settings: HRP-tagged ΔF508-CFTR expressing CFBE41o- cells; compound alone (intrinsic corrector capacity); 20 hours at 33° C.; read-out: EC50
READOUT NAME: log10 of EC50 (log10 of the value in nM)

>  <COMPOUND>
CCS(=O)(=O)NC(=O)c1cc(N2CCC(N3CCCCC3)CC2)c2c(C3CCC3)nn(-c3ccc(F)cc3)c2n1

>  <READOUT NAME>
log10 of EC50

>  <VALUE MEASURED>
3.42

$$$$
>  <COMPOUND>
O=C(NS(=O)(=O)C1CCOC1)c1cc(N2CCC(N3CCOCC3)CC2)c2c(C3CCC3)nn(-c3ccc(F)cc3)c2n1 (stereo not shown)

>  <READOUT NAME>
log10 of EC50

>  <VALUE MEASURED>
2.58

$$$$
>  <COMPOUND>
CN(C)S(=O)(=O)NC(=O)c1cc(N2CCC(CN3CCCC3)CC2)c2c(C3CCC3)nn(-c3ccc(F)cc3)c2n1

>  <READOUT NAME>
log10 of EC50

>  <VALUE MEASURED>
2.30

$$$$
>  <COMPOUND>
CC(C)c1nn(C2CCCCC2)c2nc(C(=O)NS(C)(=O)=O)cc(-c3cnc(N(C)C)nc3)c12

>  <READOUT NAME>
log10 of EC50

>  <VALUE MEASURED>
2.90

$$$$
>  <COMPOUND>
Cc1cc(C)cc(-n2nc(C)c3c(-c4ccc(N5CCOCC5)cc4)cc(C(=O)NS(C)(=O)=O)nc32)c1

>  <READOUT NAME>
log10 of EC50

>  <VALUE MEASURED>
2.95

$$$$
>  <COMPOUND>
CC(C)Oc1nn(C2CCCCC2)c2nc(C(=O)NS(C)(=O)=O)cc(-c3ccc(CN4CCC(N(C)C)CC4)cc3)c12

>  <READOUT NAME>
log10 of EC50

>  <VALUE MEASURED>
2.70

$$$$
>  <COMPOUND>
CC(C)c1nn(-c2cccc(N(C)C)c2)c2nc(C(=O)NS(C)(=O)=O)cc(-c3cnc(N(C)C4CCOCC4)nc3)c12

>  <READOUT NAME>
log10 of EC50

>  <VALUE MEASURED>
2.58

$$$$
